Where do the numbers come from? From patent US4775662A.

Molecular target: leukotriene D4 (LTD4) induced contraction of guinea pig tracheal tissues (Cavia porcellus, UniProt Q2NNR5)
Construct: Guinea pig (adult male albino Hartley strain) tracheal spiral strips; from tissue; host or cells: guinea pig trachea (spiral strips, adult male albino Hartley strain)
Sequence (Q2NNR5 whole entry): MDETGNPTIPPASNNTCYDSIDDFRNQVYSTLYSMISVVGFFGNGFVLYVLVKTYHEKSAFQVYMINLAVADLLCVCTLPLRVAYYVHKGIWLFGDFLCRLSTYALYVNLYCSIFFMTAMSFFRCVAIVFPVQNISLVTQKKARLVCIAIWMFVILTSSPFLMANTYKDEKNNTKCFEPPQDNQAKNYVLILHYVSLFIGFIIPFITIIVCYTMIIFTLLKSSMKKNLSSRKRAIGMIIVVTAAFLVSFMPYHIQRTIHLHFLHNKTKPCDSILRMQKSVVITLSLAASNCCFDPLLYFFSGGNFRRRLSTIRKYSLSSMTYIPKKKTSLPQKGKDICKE
Experiment: In vitro inhibition of LTD4-induced contraction of guinea pig tracheal spiral strips (pA2)
Type: cell-based, guinea pig (adult male albino Hartley strain)
Settings: In vitro; LTD4; guinea pig trachea; EC30 relative to carbachol; 30 min pretreatment
Counter-ions that a name gives are not always drawn.
measured-attribute: Kb (µM)

Recorded Kb, per entry:
1. CCCCCCCCCCCC/C=C\[C@H](SCCC(=O)O)[C@H](O)CCC(=O)O (relative stereo) ... 0.631
2. CCCCCCCCCCCC/C=C\[C@H](SCC(N)C(=O)O)[C@H](O)CCC(=O)O (stereo partly shown) [Example 8(c), sodium salt] ... 7.94
3. CCCCCCCCCCCC/C=C\C(CCCC(=O)O)SCCC(=O)O (stereo not shown) ... 3.16
4. CCCCCCCCCCCC/C=C\C(SCC(N)C(=O)NCC(=O)O)C(O)CCC(N)=O (stereo not shown) ... 12.6
5. CCCCCCCCCCCCCC/C=C\[C@H](SCCC(=O)O)[C@H](O)CCC(=O)O (relative stereo) ... 7.94
6. CCCCCCCCCCCC/C=C\[C@H](SCC(N)C(=O)NCC(=O)O)[C@H](O)CCC(=O)O (single isomer, unassigned; isomer 4) [Example 1(i) 4(R),5(S) isomer, hydrate] ... 6.31
7. CCCCCCCCCCCC/C=C\[C@@H](SCC(N)C(=O)O)[C@@H](O)CCC(=O)O (stereo partly shown) [Example 8(d), sodium salt] ... 7.94
8. CCCCCCCCCCCC/C=C\[C@H](SCCC(=O)O)[C@H](O)CCC(N)=O (relative stereo) ... 3.98
9. CCCCCCCCCC/C=C\[C@H](SCCC(=O)O)[C@H](O)CCC(=O)O (relative stereo) ... 5.01
10. CCCCCCCCCCCC/C=C\[C@H](SCCC(=O)NCC(=O)O)[C@H](O)CCC(=O)O (relative stereo) ... 0.631

a: CCCCCCCCCCCC/C=C\[C@@H](SCC(N)C(=O)NCC(=O)O)[C@@H](O)CCC(=O)O (single isomer, unassigned; isomer 5) [Example 1(i) 4(S),5(R) isomer]
b: CCCCCCCCCCCC/C=C\[C@H](SCC(=O)O)[C@H](O)CCC(=O)O (relative stereo)
INPUT: Please let me know which one, a or b , has a lower measured Kb value. State your choice using its label.
OUTPUT: b

I: CCCCCCCCCCCC/C=C\[C@H](SCCCC(=O)O)[C@H](O)CCC(=O)O (relative stereo)
II: CCCCCCCCCCCC/C=C\[C@H](SCC(N)C(=O)NCC(N)=O)[C@H](O)CCC(=O)O (stereo partly shown)
INPUT: When I and II are compared, which has the higher number for Kb? State your choice using its label.
OUTPUT: II
(II: 3.16 µM, I: 0.631 µM)

P: CCCCCCCCCCCC/C=C\[C@H](SCCC(N)=O)[C@H](O)CCC(=O)O (relative stereo)
Q: CCCCCCCCCCCC/C=C\C(CCC(=O)O)SCCC(=O)O (stereo not shown)
INPUT: When P and Q are compared, which has the higher number for Kb? State your choice using its label.
OUTPUT: P
